Readings of viscosity for the listed molecules
- condition-label: 353.15 K; 30000 kPa; Liquid; Vibrating wire viscometry
property-label: viscosity (mPa·s)

{"molecule": "COC(=O)CCCCC(=O)OC [dimethyl 1,6-hexanedioate]", "value-unit": "mPa·s", "measured-number": 1.417}
{"molecule": "CCCOC(=O)CCCCC(=O)OCCC [dipropyl hexanedioate]", "value-unit": "mPa·s", "measured-number": 1.9}
{"molecule": "CCOC(=O)CCCCC(=O)OCC [diethyl hexanedioate]", "value-unit": "mPa·s", "measured-number": 1.534}
{"molecule": "CCCCOC(=O)CCCCC(=O)OCCCC [dibutyl hexanedioate]", "value-unit": "mPa·s", "measured-number": 2.23}

Reference for the values: the NIST ThermoML archive (doi:10.1007/s10765-019-2573-6)
